Measured cytotoxicity at 70.5 h of individual entries
- experimentSummary: Human HepG2 cell viability assay in 384 well format
- Type: toxicity, cell-based
- Set-up: dose 125 nL, time 70.5 hour; concentration not given beside the values
- testParameters: HepG2 cells, read-out: Inhibition

Consider the worked cases shown below.
molecule: COCC1CN(CC2CC2)Cc2ncn(CC3CC3)c21 (stereo not given)
cytotoxicity at 70.5 h: 2.41%

molecule: Cc1nc(N2CCN(C)CC2)ncc1C(=O)N1CCCCC1
cytotoxicity at 70.5 h: -0.181%

molecule: CS(=O)(=O)N1CC(c2nc(N)ncc2-c2ccc(F)cc2)C1
cytotoxicity at 70.5 h: -2.15%

molecule: N#Cc1ncn(CCS(=O)(=O)c2ccc(Br)cc2)n1
cytotoxicity at 70.5 h: 4.43%

input: Could you share which cytotoxicity at 70.5 h value was measured for `c1cc(CN2CC[C@@H]3CN(c4cncnc4)C[C@@H]3C2)ccn1` ?
output: -6.08%

input: Could you share which cytotoxicity at 70.5 h value was measured for `Cc1csc(CNC(=O)N(C)Cc2ccc3c(c2)OCO3)n1` ?
output: -9.49%

input: Could you share which cytotoxicity at 70.5 h value was measured for `O=C(C1CCCCC1)N1CC2(CCNCC2)C1` ?
output: 1.58%

input: Could you share which cytotoxicity at 70.5 h value was measured for CC(CCc1cccn1C)NC(=O)Nc1cccn(C)c1=O (stereo not given) ?
output: -10.4%

input: Could you share which cytotoxicity at 70.5 h value was measured for Cc1ncc(CN(C)CC(O)c2cccc(C(F)(F)F)c2)s1 (stereo not given) ?
output: 17.1%

input: Could you share which cytotoxicity at 70.5 h value was measured for `Cc1ccc(CN2CCN(C(=O)c3ccc(Br)o3)CC2)cc1` ?
output: 27.9%

input: Could you share which cytotoxicity at 70.5 h value was measured for `CN1CCC(C)(CNC(=O)c2ccc(SCc3cccnc3)cc2)CC1` ?
output: -9.14%

input: Could you share which cytotoxicity at 70.5 h value was measured for `COc1cccc(S(=O)(=O)NC(=O)CCC2CCCC2)c1` ?
output: -8.64%
